# targetOfAssay: feline FcRn complex (FcRn-α subunit and β-microglobulin) (feline)
# assayProtocol: SPR (Biacore), FcRn on SA chip, pH 6
Recorded Kd by entry
Output spec: scalar in nM, unitless text.

Solved cases (2 shown):
[[record]]
binder = "feline IgG1a mutant ID No. 320: S428Y, D312P, S434P (antibody, part only; not given: Variable domains, not shown: another chain or arm of the molecule) constant: ASTTAPSVFPLAPSCGTTSGATVALACLVLGYFPEPVTVSWNSGALTSGVHTFPAVLQASGLYSLSSMVTVPSSRWLSDTFTCNVAHPPSNTKVDKTVRKTDHPPGPKPCDCPKCPPPEMLGGPSIFIFPPKPKDTLSISRTPEVTCLVVDLGPDDSDVQITWFVDNTQVYTAKTSPREEQFNSTYRVVSVLPILHQPWLKGKEFKCKVNSKSLPSPIERTISKAKGQPHEPQVYVLPPAQEELSRNKVSVTCLIKSFHPPDIAVEWEITGQPEPENNYRTTPPQLDSDGTYFVYSKLSVDRSHWQRGNTYTCSVYHEALHPHHTQKSLTQSPGK"
measurementlabel = "Kd"
quantitativeresult = 22.7

[[record]]
binder = "feline IgG1a mutant ID No. 363: S252Y, S434R, D399T (antibody, part only; not given: Variable domains, not shown: another chain or arm of the molecule) constant: ASTTAPSVFPLAPSCGTTSGATVALACLVLGYFPEPVTVSWNSGALTSGVHTFPAVLQASGLYSLSSMVTVPSSRWLSDTFTCNVAHPPSNTKVDKTVRKTDHPPGPKPCDCPKCPPPEMLGGPSIFIFPPKPKDTLYISRTPEVTCLVVDLGPDDSDVQITWFVDNTQVYTAKTSPREEQFNSTYRVVSVLPILHQDWLKGKEFKCKVNSKSLPSPIERTISKAKGQPHEPQVYVLPPAQEELSRNKVSVTCLIKSFHPPDIAVEWEITGQPEPENNYRTTPPQLTSDGTYFVYSKLSVDRSHWQRGNTYTCSVSHEALHRHHTQKSLTQSPGK"
measurementlabel = "Kd"
quantitativeresult = 0.923


Name the recorded Kd for feline IgG1a mutant ID No. 266: Q311W, L314K, S434Y (antibody, part only; not given: Variable domains, not shown: another chain or arm of the molecule) constant: ASTTAPSVFPLAPSCGTTSGATVALACLVLGYFPEPVTVSWNSGALTSGVHTFPAVLQASGLYSLSSMVTVPSSRWLSDTFTCNVAHPPSNTKVDKTVRKTDHPPGPKPCDCPKCPPPEMLGGPSIFIFPPKPKDTLSISRTPEVTCLVVDLGPDDSDVQITWFVDNTQVYTAKTSPREEQFNSTYRVVSVLPILHWDWKKGKEFKCKVNSKSLPSPIERTISKAKGQPHEPQVYVLPPAQEELSRNKVSVTCLIKSFHPPDIAVEWEITGQPEPENNYRTTPPQLDSDGTYFVYSKLSVDRSHWQRGNTYTCSVSHEALHYHHTQKSLTQSPGK .
2.8

Then this binder: feline IgG1a mutant ID No. 297: S428Y, D312P, L314K, S434Y (antibody, part only; not given: Variable domains, not shown: another chain or arm of the molecule) constant: ASTTAPSVFPLAPSCGTTSGATVALACLVLGYFPEPVTVSWNSGALTSGVHTFPAVLQASGLYSLSSMVTVPSSRWLSDTFTCNVAHPPSNTKVDKTVRKTDHPPGPKPCDCPKCPPPEMLGGPSIFIFPPKPKDTLSISRTPEVTCLVVDLGPDDSDVQITWFVDNTQVYTAKTSPREEQFNSTYRVVSVLPILHQPWKKGKEFKCKVNSKSLPSPIERTISKAKGQPHEPQVYVLPPAQEELSRNKVSVTCLIKSFHPPDIAVEWEITGQPEPENNYRTTPPQLDSDGTYFVYSKLSVDRSHWQRGNTYTCSVYHEALHYHHTQKSLTQSPGK
0.898
